tested on: tobacco leaves; assay: Effect of peptide infiltration on tobacco leaves; assay type: in vivo; settings: 250 μM, 100 μL infiltrated into mesophyll, measured after 48 h
MEASURED_PROPERTY: Size of the lesions in infiltrated tobacco leaves (diameter) (mm)
Just the number please, in mm, no unit attached.

Would you please look over these solved cases?
COMPOUND | UNITS_LABEL | NUMERIC_VALUE
CCCCCC(=O)NCCCC[C@H](NC(=O)[C@H](CCCCN)NC(=O)[C@H](CCCCN)NC(C)=O)C(=O)N[C@@H](Cc1ccccc1)C(=O)N[C@@H](CCCCN)C(=O)N[C@@H](CCCCN)C(=O)N[C@H](C(=O)N[C@@H](CC(C)C)C(=O)N[C@@H](CCCCN)C(=O)N[C@@H](Cc1ccc(O)cc1)C(=O)N[C@@H](CC(C)C)C(N)=O)[C@@H](C)CC [BP370, Ac-KKK(COC5H11)FKKILKYL-NH2] | mm | 5.0
CCCCCC(=O)NCCCC[C@H](NC(=O)[C@H](Cc1ccc(O)cc1)NC(=O)[C@H](CCCCN)NC(=O)[C@H](CC(C)C)NC(=O)[C@@H](NC(=O)[C@H](CCCCN)NC(=O)[C@H](CCCCN)NC(=O)[C@H](Cc1ccccc1)NC(=O)[C@H](CC(C)C)NC(=O)[C@H](CCCCN)NC(=O)[C@H](CCCCN)NC(C)=O)[C@@H](C)CC)C(N)=O [BP378, Ac-KKLFKKILKYK(COC5H11)-NH2] | mm | 13.2
CCCC(=O)NCCCC[C@H](NC(=O)[C@@H](NC(=O)[C@H](CCCCN)NC(=O)[C@H](CCCCN)NC(=O)[C@H](Cc1ccccc1)NC(=O)[C@H](CC(C)C)NC(=O)[C@H](CCCCN)NC(=O)[C@H](CCCCN)NC(C)=O)[C@@H](C)CC)C(=O)N[C@@H](CCCCN)C(=O)N[C@@H](Cc1ccc(O)cc1)C(=O)N[C@@H](CC(C)C)C(N)=O [BP387, Ac-KKLFKKIK(COC3H7)KYL-NH2] | mm | 9.2

Looking up CCCC(=O)NCCCC[C@H](NC(=O)[C@H](CCCCN)NC(C)=O)C(=O)N[C@@H](CC(C)C)C(=O)N[C@@H](Cc1ccccc1)C(=O)N[C@@H](CCCCN)C(=O)N[C@@H](CCCCN)C(=O)N[C@H](C(=O)N[C@@H](CC(C)C)C(=O)N[C@@H](CCCCN)C(=O)N[C@@H](Cc1ccc(O)cc1)C(=O)N[C@@H](CC(C)C)C(N)=O)[C@@H](C)CC [BP381, Ac-KK(COC3H7)LFKKILKYL-NH2] , I found its Size of the lesions in infiltrated tobacco leaves (diameter) recorded as 10.8
